Recorded pKd by entry
# target_of_assay: Human BCMA (human) (UniProt Q02223)
# assay_explanation: SPR, IgG on chip, huBCMA analyte
Recall that pKd is obtained by taking minus log10 of the concentration measured in molar.

Here's what some known entries look like.
{"binder": "COMBO_Rd4_6nM_C11 (antibody, V domains shown, IgG) VH: EVQLLESGGGLVQPGGSLRLSCAASGFTFSSYPMSWVRQAPGKGLEWVSAIGGSGGSLGYADSVKGRFTISRDNSKNTLYLQMNSLRAEDTAVYYCARYWPMDSWGQGTLVTVSS VL: EIVLTQSPGTLSLSPGERATLSCRASQSVSPLYLAWYQQKPGQAPRLLMYDASIRATGIPDRFSGSGSGTDFTLTISRLEPEDFAVYYCQQYKAWPLTFGQGTKVEIK", "pKd": 10.74}
{"binder": "COMBO_Rd4_6nM_C09 (antibody, V domains shown, IgG) VH: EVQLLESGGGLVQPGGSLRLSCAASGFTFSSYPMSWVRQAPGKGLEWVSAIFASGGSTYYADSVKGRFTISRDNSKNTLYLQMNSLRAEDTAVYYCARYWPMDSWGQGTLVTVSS VL: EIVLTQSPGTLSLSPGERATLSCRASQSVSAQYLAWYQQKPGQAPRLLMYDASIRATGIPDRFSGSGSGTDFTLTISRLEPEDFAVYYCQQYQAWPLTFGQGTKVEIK", "pKd": 10.80}

We now examine a further binder.
For reference, reported pKd for COMBO_Rd4_0.6nM_C30 (antibody, V domains shown, IgG) VH: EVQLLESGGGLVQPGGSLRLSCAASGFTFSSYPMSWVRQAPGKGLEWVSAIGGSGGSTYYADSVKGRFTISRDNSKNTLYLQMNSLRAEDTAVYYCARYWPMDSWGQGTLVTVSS VL: EIVLTQSPGTLSLSPGERATLSCRASQSVSYMYLAWYQQKPGQAPRLLIYDASIRATGIPDRFSGSGSGTDFTLTISRLEPEDFAVYYCQQYKSWPLTFGQGTKVEIK stands at 10.19
